- protocol: Solubility in water
- Assay type: physicochemical
recorded_metric: solubility

Input line: Which value of solubility has been reported for CCNC(=O)CCC(N)C(=O)O [Mg Theanate Composition, magnesium di-L-theanate] in the records?
Output line: ~650 mg/mL

----------
Each record here notes measured Serotonin.
- Test system: brain serotonin, dopamine and melatonin
- protocol: Brain neurotransmitter levels by ELISA in caffeine-induced wakefulness mice
- Type: in vivo
- run_parameters: brain; caffeine followed by saline (C) or test article (20 mg theanine/kg); ELISA; means and standard deviations

Below: 3 molecules and their reported Serotonin.
* CCNC(=O)CCC(N)C(=O)O [CMgT1, magnesium di-L-theanate] | 762.29 + 25.34b ng/g
* CCNC(=O)CCC(N)C(=O)O [CMgT2, magnesium di-L-theanate] | 751.43 + 30.34b ng/g
* CCNC(=O)CCC(N)C(=O)O (stereo not shown) [CT, 2-amino-4-(ethylcarbamoyl)-butyric acid, reference compound] | 655.43 + 35.46c ng/g

Let's switch to this molecule now.
Input line: Which value of Serotonin has been reported for Cn1c(=O)c2c(ncn2C)n(C)c1=O [C, Caffeine, reference compound] in the records?
Output line: 571.00 + 42.14d ng/g
